- Test system: HIV
- Type: cell-based
- setup_conditions: EC50 in the presence of human serum (25%) versus without human serum, MT-4 cells
observable: Potency shift value

Check out these entries, answers already filled in.
Cc1c([C@H](OC(C)(C)C)C(=O)O)c(-c2ccc(F)cc2)c2cc(C)n3c2c1N(CC(=O)N(C)C)CC3 | 1.9
Cc1c([C@H](OC(C)(C)C)C(=O)O)c(-c2cc3ccccc3s2)c2cc(C)n3c2c1N(CCN(C)C)CC3 | 3.4
Cc1ccc(-c2c([C@H](OC(C)(C)C)C(=O)O)c(C)c3c4c2cc(C)n4CCN3S(=O)(=O)CCO)cc1 | 5.4

Q: What value of Potency shift value has been reported for the following molecule? Cc1ccc(-c2c([C@H](OC(C)(C)C)C(=O)O)c(C)c3c4c2cc(C)n4CCN3c2ncc(Oc3ncccn3)cn2)cc1
Result: 39

---

- Test system: HIV (HTLV-IIIB strain)
- assay_notes: HIV replication inhibition assay (Test Example 1; MT-4 cells, MTT)
- Format: cell-based
- setup_conditions: Human immunodeficiency virus 1, MT4, 96 h; HIV (HTLV-IIIB strain), MT-4 cells, MTT, four days; read-out: EC90
This listing pairs molecules with measured log10 EC90.
Reminder: these figures are log10 of reported EC90, in nM before transformation.

Cc1ccc(-c2c([C@H](OC(C)(C)C)C(=O)O)c(C)c3c4c2cc(C)n4CCN3C)cc1 | 0.04
Cc1c([C@H](OC(C)(C)C)C(=O)O)c(-c2ccc(Cl)cc2)c2cc(C)n3c2c1N(c1ncc(OCCO)cn1)CC3 | 1.11
Cc1c([C@H](OC(C)(C)C)C(=O)O)c(-c2ccc(Cl)cc2)c2cc(C)n3c2c1N(c1ncc(F)cn1)CC3 | 0.46
Cc1c([C@H](OC(C)(C)C)C(=O)O)c(-c2ccc(Cl)cc2)c2cc(C)n3c2c1N(c1ncc(N2CCOCC2)cn1)CC3 | 0.40
Cc1ccc(-c2c([C@H](OC(C)(C)C)C(=O)O)c(C)c3c4c2cc(C)n4CCN3c2ncc(O[C@@H]3CCN(C)C3)cn2)cc1 | 0.89
Cc1ccc(-c2c([C@H](OC(C)(C)C)C(=O)O)c(C)c3c4c2cc(C(F)F)n4CCN3C)cc1 | 0.32
COc1cnc(N2CCn3c(C)cc4c(-c5ccc(C)cc5)c([C@H](OC(C)(C)C)C(=O)O)c(C)c2c43)nc1 | 0.51
Cc1c([C@H](OC(C)(C)C)C(=O)O)c(-c2ccc(Cl)cc2)c2cc(C)n3c2c1N(c1ncc(OCCN(C)C)cn1)CC3 | 0.90

Q: Please look up its log10 EC90: Cc1ccc(-c2c([C@H](OC(C)(C)C)C(=O)O)c(C)c3c4c2cc(C)n4CCN3S(C)(=O)=O)cc1
Result: 0.23

Q: Look up log10 EC90 for this molecule: Cc1ccc(-c2c([C@H](OC(C)(C)C)C(=O)O)c(C)c3c4c2cc(C(F)(F)F)n4CCN3C)cc1
Result: 0.56

Q: Query: log10 EC90; subject: CCS(=O)(=O)N1CCn2c(C)cc3c(-c4ccc(Cl)cc4)c([C@H](OC(C)(C)C)C(=O)O)c(C)c1c32
Result: 0.41

Q: I have this molecule here, Cc1ccc(-c2c([C@H](OC(C)(C)C)C(=O)O)c(C)c3c4c2cc(C)n4CC(=O)N3C)cc1 , and I need its recorded log10 EC90.
Result: 1.08

Q: Data request, read-out log10 EC90, for Cc1ccc(-c2c([C@H](OC(C)(C)C)C(=O)O)c(C)c3c4c2ccn4CCN3C)cc1
Result: 0.78

Q: log10 EC90 lookup needed for Cc1c([C@H](OC(C)(C)C)C(=O)O)c(-c2ccc(F)cc2)c2cc(C)n3c2c1N(C)CC3 , thanks.
Result: 0.18
